- EXPERIMENTAL_SYSTEM: UniProt:P41144
- EXPERIMENT_DESCRIPTION: Binding affinity to Opioid receptor kappa 1 by competitive inhibition of radioligand [3H]diprenorphine using cloned receptors transiently expressed on CHO cells
- Type: cell-based
pKi: −log10 of the molar value.
Classification field: satisfied = pKi at or over 8; not satisfied = pKi under 8.

>  <RECORD_SMILES>
CC(C)C[C@H](NC(=O)[C@H](CCCCN)NC(=O)[C@@H]1CCCN1C(=O)[C@H](CCCNC(=N)N)NC(=O)[C@H](CN)NC(=O)[C@H](CCCNC(=N)N)NC(=O)[C@H](CCCNC(=N)N)NC(=O)[C@@H](CC(=O)O)NC(=O)[C@H](Cc1ccccc1)NC(=O)CNC(=O)CNC(=O)[C@@H](N)Cc1ccc(O)cc1)C(=O)N[C@@H](CCCCN)C(N)=O

>  <CLASS_LABEL>
not satisfied

$$$$

Has CC[C@H](C)[C@H](NC(=O)[C@H](CCCNC(=N)N)NC(=O)[C@H](CCCNC(=N)N)NC(=O)[C@H](CC(C)C)NC(=O)[C@H](Cc1ccccc1)NC(=O)[C@@H](CC(=O)O)NC(=O)CNC(=O)[C@@H](N)Cc1ccc(O)cc1)C(=O)N[C@@H](CCCNC(=N)N)C(=O)N1CCC[C@H]1C(=O)N[C@@H](CCCCN)C(=O)N[C@@H](CC(C)C)C(=O)N[C@@H](CCCCN)C(N)=O a recorded pKi greater than or equal to 8?
not satisfied

Has CC[C@H](C)[C@H](NC(=O)[C@H](CCCNC(=N)N)NC(=O)[C@H](CCCNC(=N)N)NC(=O)[C@@H](CC(=O)O)NC(=O)[C@H](Cc1ccccc1)NC(=O)CNC(=O)CNC(=O)[C@@H](N)Cc1ccc(O)cc1)C(=O)N[C@@H](CCCNC(=N)N)C(=O)N1CCC[C@H]1C(=O)N[C@@H](CCCCN)C(=O)N[C@@H](CC(C)C)C(=O)N[C@@H](CCCCN)C(N)=O a recorded pKi greater than or equal to 8?
not satisfied

Has CC[C@H](C)[C@H](NC(=O)[C@H](CCCNC(=N)N)NC(=O)[C@H](CCCNC(=N)N)NC(=O)[C@H](CC(C)C)NC(=O)[C@H](Cc1ccccc1)NC(=O)CNC(=O)CNC(=O)[C@@H](N)Cc1ccc(O)cc1)C(=O)N[C@@H](CCCNC(=N)N)C(=O)N1CCC[C@H]1C(=O)N[C@@H](CCCCN)C(=O)N[C@@H](CC(C)C)C(=O)N[C@@H](CCCCN)C(=O)O a recorded pKi greater than or equal to 8?
satisfied

Has CC[C@H](C)[C@@H]1NC(=O)[C@H](CCCNC(=N)N)NC(=O)[C@H](NC(=O)[C@H](CC(C)C)NC(=O)[C@H](Cc2ccccc2)NC(=O)CNC(=O)CNC(=O)[C@@H](N)Cc2ccc(O)cc2)CC(=O)NCC[C@@H](C(=O)N2CCC[C@H]2C(=O)N[C@@H](CCCCN)C(=O)N[C@@H](CC(C)C)C(=O)N[C@@H](CCCCN)C(N)=O)NC1=O a recorded pKi greater than or equal to 8?
satisfied
